- Test Description: Pharmokinetic study, bioavailability (Example 6C)
- Assay type: in vivo, mice
- Run Conditions: mouse, plasma, oral, 30 mg/kg; read-out: % F (bioavailability)
- Procedure: This example characterized ILY-4001 [2-(3-(2-amino-2-oxoacetyl)-1-(biphenyl-2-ylmethyl)-2-methyl-1H-indol-4-yloxy)acetic acid], alternatively referred to herein as methyl indoxam, with respect to activity, as determined by IC50 assay (Example 6A), with respect to cell absorption, as determined by in-vitro Caco-2 assay (Example 6B) and with respect to bioavailability, as determined using in-vivo mice studies (Example 6C). Bioavailability was calculated as a ratio of AUC-oral/AUC-intravenous (IV). […]
Measured Property: bioavailability (%)

Cc1c(C(=O)C(N)=O)c2c(OCC(=O)O)cccc2n1Cc1ccccc1-c1ccccc1 [ILY-4001]; 28
